Entry source: ChEMBL document CHEMBL1133280

- Target or system: Endothelin-1 receptor (Rattus norvegicus)
- Sequence (P26684 whole entry): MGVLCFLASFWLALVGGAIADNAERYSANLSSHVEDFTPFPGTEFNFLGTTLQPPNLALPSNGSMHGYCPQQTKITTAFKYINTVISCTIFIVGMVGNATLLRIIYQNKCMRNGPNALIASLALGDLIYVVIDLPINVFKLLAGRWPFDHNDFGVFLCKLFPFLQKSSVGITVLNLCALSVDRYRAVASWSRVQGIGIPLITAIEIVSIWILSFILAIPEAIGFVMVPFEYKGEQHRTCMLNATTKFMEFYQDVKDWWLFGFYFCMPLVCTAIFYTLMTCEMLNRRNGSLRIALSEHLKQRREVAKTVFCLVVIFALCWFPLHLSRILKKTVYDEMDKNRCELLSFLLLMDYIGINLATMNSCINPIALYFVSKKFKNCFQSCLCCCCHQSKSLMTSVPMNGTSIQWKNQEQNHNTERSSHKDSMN
- Protocol description: Displacement of [125 I] ET-1 from rat aortic smooth muscle A7r5 cells transfected with Endothelin A receptor
Listed compounds paired with reported IC50

> print(dat)
                           smiles.structure  recorded.measurement
1  CSc1c(NS(=O)(=O)c2ccc(C(C)(C)C)cc2)noc1C              > 100 µM
2  COc1cccc(Sc2c(NS(=O)(=O)c3ccc(C(C)(C)C)cc3)noc2C)c1               0.53 µM
3         CCc1c(NS(=O)(=O)c2ccc(N)cc2)noc1C                3.4 µM

# ---- query compound ----
Exercise: So what's the measured IC50 for this one? COc1cccc(Sc2c(NS(=O)(=O)c3ccc(C(C)(C)C)cc3)noc2CO)c1
Key: 6.2 µM

###

Listed molecules paired with reported IC50
- Target or system: Endothelin receptor type B (Sus scrofa, UniProt P35463)
- Sequence (P35463 whole entry): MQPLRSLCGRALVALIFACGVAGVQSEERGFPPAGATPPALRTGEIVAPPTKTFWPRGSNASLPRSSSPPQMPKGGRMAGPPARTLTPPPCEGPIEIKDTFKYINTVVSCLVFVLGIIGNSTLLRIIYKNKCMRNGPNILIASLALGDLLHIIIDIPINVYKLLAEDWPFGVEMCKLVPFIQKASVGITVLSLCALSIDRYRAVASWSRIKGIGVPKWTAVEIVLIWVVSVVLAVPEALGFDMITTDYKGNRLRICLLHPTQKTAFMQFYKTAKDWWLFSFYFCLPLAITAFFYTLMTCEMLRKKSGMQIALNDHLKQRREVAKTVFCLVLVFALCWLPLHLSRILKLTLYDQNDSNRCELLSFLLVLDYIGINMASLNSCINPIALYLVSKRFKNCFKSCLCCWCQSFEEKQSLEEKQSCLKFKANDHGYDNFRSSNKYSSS
- Protocol description: Binding affinity towards displacement of [125 I] ET-3 from COS-7 cells transfected with porcine Endothelin B receptor

A selection of reference data follows.
> print(dat)
                           smiles.structure  recorded.measurement
1  COc1cccc(Sc2c(NS(=O)(=O)c3ccc(C(C)(C)C)cc3)noc2CCCCC=O)c1               0.02 µM
2  COc1cccc(Sc2c(NS(=O)(=O)c3ccc(C(C)(C)C)cc3)noc2CCCO)c1               0.14 µM
3  CSc1c(NS(=O)(=O)c2ccc(C(C)(C)C)cc2)noc1C                 35 µM
4  COc1cccc(Sc2c(NS(=O)(=O)c3ccc(C(C)(C)C)cc3)noc2CCCC(=O)O)c1                0.5 µM

Exercise: So what's the measured IC50 for this one? Cc1onc(NS(=O)(=O)c2ccc(N)cc2)c1I
Key: > 1000 µM

Exercise: So what's the measured IC50 for this one? COc1cccc(Sc2c(NS(=O)(=O)c3ccc(C(C)(C)C)cc3)noc2CCC/C=N/O)c1
Key: 0.085 µM

Exercise: So what's the measured IC50 for this one? Cc1onc(NS(=O)(=O)c2ccc(C(C)(C)C)cc2)c1I
Key: 30 µM

Exercise: So what's the measured IC50 for this one? COc1cccc(Sc2c(NS(=O)(=O)c3ccc(C(C)(C)C)cc3)noc2CCO)c1
Key: 0.43 µM

Exercise: So what's the measured IC50 for this one? COc1cccc(Sc2c(NS(=O)(=O)c3ccc(C(C)(C)C)cc3)noc2CCCC(C)=O)c1
Key: 0.4 µM
